# experiment: In vitro melanin binding by microscale thermophoresis / initial fluorescence (Monolith NT.115 pico)
# measurementParameters: class by Kd
propertyMeasured: Melanin binding classification

{"compound": "Brc1c(NC2=NCCN2)ccc2nccnc12 [Brimonidine, reference compound]", "reportedValue": "high (high (<65 μM))"}
{"compound": "C/C(=N\\Nc1ccc(S(N)(=O)=O)cc1)c1cccnc1 [A01]", "reportedValue": "high (high (<65 μM))"}

---

# experiment: In vitro melanin binding by microscale thermophoresis / initial fluorescence (Monolith NT.115 pico)
# measurementParameters: melanin nanoparticles 0.5 mg/mL; IF or MST mode; 68% confidence; read-out: Kd ± confidence (melanin binding)
propertyMeasured: Kd (µM)

{"molecule": "Brc1c(NC2=NCCN2)ccc2nccnc12 [Brimonidine, reference compound]", "Kd (µM)": 25}
{"molecule": "CN1[C@@H]2CC[C@H]1C[C@@H](OC(=O)C(CO)c1ccccc1)C2 (stereo partly shown)", "Kd (µM)": 758}

1: C/C(=N\Nc1ccc(S(N)(=O)=O)cc1)c1cccnc1
2: NS(=O)(=O)c1ccc(-n2ncc(N3CCCCCC3)cc2=O)cc1
I need your help: which of the pair 1 , 2 has higher Kd? Give the label of your selection. 2

---

# testedOn: human carbonic anhydrase II (Homo sapiens)
# Construct: purchased Sigma
# experiment: Multiparametric surface plasmon resonance (MP-SPR) interaction kinetics with immobilized hCAII
# Assay type: binding
# measurementParameters: MP-SPR, 25 °C, 1:1 model
In this section we review reported kd values for a set of molecules.

Consider the following illustrative entries.
{"smilesRepr": "NS(=O)(=O)c1ccc(NN=C(c2cncc(F)c2)C2CC2)cc1", "testedOn": "human carbonic anhydrase II (Homo sapiens)", "reportedValue": "1.78 ± 0.40 10^–2 s^–1"}
{"smilesRepr": "CC(=NNc1ccc(S(N)(=O)=O)cc1)c1nccnc1C", "testedOn": "human carbonic anhydrase II (Homo sapiens)", "reportedValue": "1.70 ± 0.25 10^–2 s^–1"}
{"smilesRepr": "CC(=NNc1ccc(S(N)(=O)=O)cc1)c1cnc2ccccc2n1", "testedOn": "human carbonic anhydrase II (Homo sapiens)", "reportedValue": "1.27 ± 0.11 10^–2 s^–1"}
{"smilesRepr": "CC(=NNc1ccc(S(N)(=O)=O)cc1Br)c1cccnc1", "testedOn": "human carbonic anhydrase II (Homo sapiens)", "reportedValue": "1.25 ± 0.43 10^–2 s^–1"}

// query kd value for entry C/C(=N\Nc1ccc(S(N)(=O)=O)cc1)c1cccnc1 1.45 ± 0.15 10^–2 s^–1

One more molecule: CC(=NNc1ccc(S(N)(=O)=O)cc1)c1cncc(Br)c1 2.25 ± 0.02 10^–2 s^–1

---

# experiment: In vitro melanin binding by microscale thermophoresis / initial fluorescence (Monolith NT.115 pico)
# measurementParameters: Appendix table 1; Nano or Pico detector, IF or MST mode; 68% confidence; read-out: Melanin binding affinity Kd ± confidence
propertyMeasured: Kd (µM)

I: CC(=NNc1ccc(S(N)(=O)=O)cc1)c1nccnc1C
II: CC(=NNc1ccc(S(N)(=O)=O)cc1Br)c1cccnc1
Hi, I'm comparing two records. Which one has the lower Kd, I or II ? Give the label of your selection. I
(I: 97 µM, II: 230 µM)

1: CC(=NNc1ccc(S(N)(=O)=O)cc1)c1cnc2ccccc2n1
2: NS(=O)(=O)NC1CCCc2ccccc21 (centres unmarked)
I need your help: which of the pair 1 , 2 has higher Kd? Give the label of your selection. 2

P: NS(=O)(=O)c1ccc(-c2ccc(=O)[nH]n2)s1
Q: CCN(CC)CCN(C)S(N)(=O)=O
R: NS(=O)(=O)c1cccc(-c2nc(-c3cccnc3)no2)c1
S: NS(=O)(=O)c1cnn(-c2ccc(Cl)c(S(N)(=O)=O)c2)c1
T: COc1cc(S(N)(=O)=O)ccc1-c1nc(-c2cccnc2)no1
Sort by Kd, descending. List the labels, following the order given in the request. Q, S, P, T, R
(Q: 1520 µM, S: 941 µM, P: 393 µM, T: 152 µM, R: 78 µM)

The measurements presented in this section are drawn from paper PMC11795524.
